Recorded values, source paper PMC9450014.

# ASSAY EXPLANATION: Metabolic stability in mouse liver microsomes
# Format: in vitro ADME
# PROTOCOL CONDITIONS: mouse, liver microsomes; calculated from t1/2 in MLM; read-out: In vitro CLint MLM
ENDPOINT NAME: CLint scaled (mL/min/kg)

- MOL: "CCCCCCCCCCOc1cc2c(OC(=O)N3CCOCC3)c(C(=O)OCC)cnc2cc1OCC"
  CLint scaled [mL/min/kg]: 457

[I] CCCCCCCCCCOc1cc2c(=O)c(C(=O)NCCOCCO)c[nH]c2cc1OCC
[II] CCCCCCCCCCOc1cc2c(OC(=O)N3CCN(S(C)(=O)=O)C3=O)c(C(=O)OCC)cnc2cc1OCC
Query: Hi, I'm comparing I with II and wondering which one has the bigger number for CLint scaled. Any idea? Answer = label.
Response: II
(II: 541 mL/min/kg, I: 104 mL/min/kg)

* * *

# ASSAY EXPLANATION: In vivo pharmacokinetics, intravenous administration
# Design: species or system C57BL/6 mice
# PROTOCOL CONDITIONS: C57BL/6, mouse; iv, mice, whole blood; dosed compound measured; 5 mg/kg per table footnote (10 mg/kg per method)
# Procedure: Healthy C57BL/6 mice each weighing approximately 25 g were maintained at the University of Cape Town animal facility. […] A quantitative LC-MS/MS assay was used to determine whole-blood concentrations of RMB005, −059 and −060. […] From these values the following PK parameters—clearance CL, volume of distribution (Vd) and oral bioavailability (BA) were determined using the non-compartmental analysis Microsoft Excel Add-In PKSolver ([Zhang et al., 2010]).
ENDPOINT NAME: half-life (h)
Lab book: enter the figure in h, no units written.

Query: # lookup: half-life of "CCCCCCCCCCOc1cc2c(=O)c(C(=O)NCCOCCO)c[nH]c2cc1OCC"
Response: 2.62

* * *

# ASSAY EXPLANATION: Passive permeability, parallel artificial membrane permeation assay (PAMPA)
# Type: in vitro ADME
# PROTOCOL CONDITIONS: donor pH 6.5, acceptor pH 7.4, 4 h, read-out: Permeability (LogPapp) (converted)
ENDPOINT NAME: Papp at 4 h, 1 mM (×10⁻⁶ cm/s)

- MOL: "CCCCCCCCCCOc1cc2c(=O)c(C(=O)NCCOCCO)c[nH]c2cc1OCC"
  MEASURED VALUE: 0.501

[I] CCCCCCCCCCOc1cc2c(OC(=O)N3CCN(S(C)(=O)=O)C3=O)c(C(=O)OCC)cnc2cc1OCC
[II] CCCCCCCCCCOc1cc2c(OC(=O)N3CCOCC3)c(C(=O)OCC)cnc2cc1OCC
Query: Hi, I'm comparing I with II and wondering which one has the bigger number for Papp at 4 h, 1 mM. Any idea? Answer = label.
Response: II

* * *

# ASSAY EXPLANATION: Plasma protein binding (ultracentrifugation)
# Assay type: in vitro ADME
# PROTOCOL CONDITIONS: pooled plasma; human plasma; read-out: Bound to plasma proteins (converted)
ENDPOINT NAME: fraction unbound at 1 h
Reply briefly: the number, and no unit.

Query: # lookup: fraction unbound at 1 h of "CCCCCCCCCCOc1cc2c(=O)c(C(=O)NCCOCCO)c[nH]c2cc1OCC"
Response: 0.08

* * *

# ASSAY EXPLANATION: In vivo pharmacokinetics, intravenous administration
# Set-up: species or system C57BL/6 mice
# PROTOCOL CONDITIONS: C57BL/6, mouse; iv, mice, whole blood; dosed compound measured; 5 mg/kg per table footnote
ENDPOINT NAME: Vd (L/kg)
Lab book: enter the figure in L/kg, no units written.

Query: # lookup: Vd of "CCCCCCCCCCOc1cc2c(=O)c(C(=O)NCCOCCO)c[nH]c2cc1OCC"
Response: 6.59
